System: SK-MEL-5 melanoma
Assay: NCI tumour cell line growth inhibition, 48 h
Here the recorded GI50 is given for each entry.

Past entries and their recorded results:
COc1cc(/C(C#N)=C/c2nc3c(N4CCOCC4)nc(Cl)nc3n2C)cc(OC)c1OC = < 10 nM
c1ccc(Sc2ncnc3ccccc23)cc1 = 11400 nM
COc1ccc(CN2C(=O)/C(=C\c3cc(OC)c(OC)c(OC)c3)c3ccccc32)cc1 = 2510 nM
O=C(Nc1ccc(Oc2ccc(Nc3nc4ccccc4s3)cc2)cc1)Nc1ccc(Cl)c(C(F)(F)F)c1 = 1450 nM
O=C(/C(=C/c1ccc([N+](=O)[O-])cc1)SCc1ccccc1)c1ccc(Cl)cc1 = 3410 nM
O=C(Oc1ccc(Cl)cc1)c1ccccc1Nc1ccnc(C(F)(F)F)c1 = 16800 nM
CC1SC(c2ccc(F)cc2)N(NC(=O)C(O)c2ccccc2)C1=O (stereo not drawn) = > 100000 nM

Now for the molecule whose GI50 we want.
Form: molecule = COc1cccc(C(=O)NC(c2ccc(C)cc2)c2cc(Cl)c3cccnc3c2O)c1 (stereo not drawn) ; GI50 = 318 nM
